# MIC90 per entry
System: Streptococcus pneumoniae
Test: Antimicrobial activity against Streptococcus pneumoniae by broth microdilution method
Format: functional
Respond numerically; units are µg/mL and should not be typed.

The following molecules have reported results that may help.
>>> print(df.to_string())
                                   molecule  readout_label  value_measured
0  C[C@@H](O)[C@H]1C(=O)N2C(C(=O)O)=C(S[C@@H]3CN[C@H](C(=O)N(C)C)C3)[C@H](C)[C@H]12 [MEROPENEM]          MIC90               2
1  CC1(C)S[C@@H]2[C@H](NC(=O)Cc3ccccc3)C(=O)N2[C@H]1C(=O)O [PENICILLIN G]          MIC90               8
2  CO/N=C(\C(=O)N[C@@H]1C(=O)N2C(C(=O)O)=C(CSc3nc(=O)c(O)nn3C)CS[C@H]12)c1csc(N)n1 [CEFTRIAXONE]          MIC90               8

Now look at this entry.
Q) Recall and state the measured MIC90 for CO/N=C(\C(=O)N[C@@H]1C(=O)N2C(C(=O)O)=C(COC(C)=O)CS[C@H]12)c1csc(N)n1 [CEFOTAXIME] .
A) 8

---

# MIC per entry
Test system: Streptococcus pneumoniae
Assay: Antimicrobial activity against Streptococcus pneumoniae R6 transformed with Streptococcus pneumoniae 3191 pbp2x gene by broth microdilution method
Type: functional
Respond numerically; units are µg/mL and should not be typed.

The following compounds have reported results that may help.
>>> print(df.to_string())
                                   compound  value_measured
0  CO/N=C(\C(=O)N[C@@H]1C(=O)N2C(C(=O)O)=C(COC(C)=O)CS[C@H]12)c1csc(N)n1 [CEFOTAXIME]            0.03
1  CO/N=C(\C(=O)N[C@@H]1C(=O)N2C(C(=O)O)=C(CSc3nc(=O)c(O)nn3C)CS[C@H]12)c1csc(N)n1 [CEFTRIAXONE]               2
2  CC1(C)S[C@@H]2[C@H](NC(=O)[C@H](N)c3ccc(O)cc3)C(=O)N2[C@H]1C(=O)O [AMOXICILLIN]           0.047

Now look at this entry.
Q) Param request: MIC | system Streptococcus pneumoniae | item CC1(C)S[C@@H]2[C@H](NC(=O)Cc3ccccc3)C(=O)N2[C@H]1C(=O)O [PENICILLIN G]
A) 2

---

Tested on: Streptococcus pneumoniae
Test: Antimicrobial activity against Streptococcus pneumoniae R6 transformed with Streptococcus pneumoniae 72521 genomic DNA, pbp2x, pbp1a and pbp2b genes by broth microdilution method
Format: functional
# MIC per entry
Express your answer as a number followed by its unit.

The following compounds have reported results that may help.
In [3]: df
Out[3]:
                                   compound  value_measured
0  CC1(C)S[C@@H]2[C@H](NC(=O)[C@H](N)c3ccc(O)cc3)C(=O)N2[C@H]1C(=O)O [AMOXICILLIN]         1 µg/mL
1  CC1(C)S[C@@H]2[C@H](NC(=O)Cc3ccccc3)C(=O)N2[C@H]1C(=O)O [PENICILLIN G]         1 µg/mL

Q) Recall and state the measured MIC for CO/N=C(\C(=O)N[C@@H]1C(=O)N2C(C(=O)O)=C(CSc3nc(=O)c(O)nn3C)CS[C@H]12)c1csc(N)n1 [CEFTRIAXONE] .
A) 0.5 µg/mL

Q) Recall and state the measured MIC for CO/N=C(\C(=O)N[C@@H]1C(=O)N2C(C(=O)O)=C(COC(C)=O)CS[C@H]12)c1csc(N)n1 [CEFOTAXIME] .
A) 2 µg/mL

---

Test system: Streptococcus pneumoniae
Experiment: Antimicrobial activity against Streptococcus pneumoniae R6 transformed with Streptococcus pneumoniae 3191 pbp2x, pbp2b, pbp1a and Streptococcus pneumoniae 72521 murM genes by broth microdilution method
Type: functional
readout_label: MIC (µg/mL)
Respond numerically; units are µg/mL and should not be typed.

                            chemical_smiles  unit_text  value_measured
0  CC1(C)S[C@@H]2[C@H](NC(=O)Cc3ccccc3)C(=O)N2[C@H]1C(=O)O      µg/mL               8
1  CO/N=C(\C(=O)N[C@@H]1C(=O)N2C(C(=O)O)=C(COC(C)=O)CS[C@H]12)c1csc(N)n1      µg/mL              16

Q) Recall and state the measured MIC for CO/N=C(\C(=O)N[C@@H]1C(=O)N2C(C(=O)O)=C(CSc3nc(=O)c(O)nn3C)CS[C@H]12)c1csc(N)n1 .
A) 8

Q) Recall and state the measured MIC for CC1(C)S[C@@H]2[C@H](NC(=O)[C@H](N)c3ccc(O)cc3)C(=O)N2[C@H]1C(=O)O .
A) 4

---

Test system: Streptococcus pneumoniae
Experiment: Antimicrobial activity against Streptococcus pneumoniae R6 transformed with Streptococcus pneumoniae 3191 pbp2b, pbp1a and murM genes by broth microdilution method
Assay type: functional
readout_label: MIC
Express your answer as a number followed by its unit.

In [3]: df
Out[3]:
                                   compound          target_or_system  readout_label  value_measured
0  CO/N=C(\C(=O)N[C@@H]1C(=O)N2C(C(=O)O)=C(CSc3nc(=O)c(O)nn3C)CS[C@H]12)c1csc(N)n1 [CEFTRIAXONE]  Streptococcus pneumoniae            MIC      0.06 µg/mL
1  CC1(C)S[C@@H]2[C@H](NC(=O)Cc3ccccc3)C(=O)N2[C@H]1C(=O)O [PENICILLIN G]  Streptococcus pneumoniae            MIC      0.03 µg/mL
2  CO/N=C(\C(=O)N[C@@H]1C(=O)N2C(C(=O)O)=C(COC(C)=O)CS[C@H]12)c1csc(N)n1 [CEFOTAXIME]  Streptococcus pneumoniae            MIC      0.03 µg/mL

Q) Param request: MIC | system Streptococcus pneumoniae | item CC1(C)S[C@@H]2[C@H](NC(=O)[C@H](N)c3ccc(O)cc3)C(=O)N2[C@H]1C(=O)O [AMOXICILLIN]
A) 0.023 µg/mL
